Biological target: KRAS G12C (Homo sapiens, UniProt P01116, G12C)
Sequence (P01116 1-188 isoform P01116-2 G12C): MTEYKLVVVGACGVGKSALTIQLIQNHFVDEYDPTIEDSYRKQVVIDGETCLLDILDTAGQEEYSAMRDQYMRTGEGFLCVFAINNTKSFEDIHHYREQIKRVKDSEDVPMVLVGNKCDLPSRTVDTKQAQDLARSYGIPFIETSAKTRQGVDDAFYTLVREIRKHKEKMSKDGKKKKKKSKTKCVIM
Assay: Cell Activity Assay: accumulation of GDP-bound KRAS G12C in MIAPaCa-2 cells (Raf-1 RBD capture, MSD readout)
Assay type: cell-based
Parameters: endogenous in cells; host or cells: MIAPaCa-2
Conditions: 6 hours, assay limit is 30.00
List of IC50 values.
measurement_kind: IC50 (µM)

- molecule: "C=CC(=O)N1CCN(c2nc(OCC3CCOC3)nc3c(Oc4c(Cl)c(F)cc5[nH]ncc45)nc(Cl)cc23)CC1 (centres unmarked) [Example 12G]"
  sign_qualifier: "="
  reported_result: 0.071
- molecule: "C=CC(=O)N1CCN(c2ncnc3c(Oc4c(Cl)c(C)cc5[nH]ncc45)nccc23)C[C@@H]1C [Example 22A]"
  sign_qualifier: "="
  reported_result: 15.6
- molecule: "C=CC(=O)N1CCN(c2nc(NC(C)c3nncn3C)nc3c(Oc4c(C)ccc5[nH]ncc45)cccc23)CC1 (centres unmarked) [Example 03F]"
  sign_qualifier: ">"
  reported_result: 30
- molecule: "C=CC(=O)N1CCN(c2ncnc3c(Oc4c(Cl)c(C)cc5[nH]ncc45)cccc23)CC1 [Example 06C]"
  sign_qualifier: "="
  reported_result: 1.62
- molecule: "C=CC(=O)N1CCN(c2nc(O[C@@H]3CCN(CCOC)C[C@H]3C)nc3c(Oc4c(Cl)c(F)cc5[nH]ncc45)nc(Cl)cc23)CC1 (racemic) [Example 33G]"
  sign_qualifier: "="
  reported_result: 0.052
- molecule: "C=CC(=O)N1CCN(c2nc(O[C@@H]3CN(C)C[C@H]3OCC)nc3c(Oc4c(Cl)c(F)cc5[nH]ncc45)nc(Cl)cc23)CC1 [Example 27G]"
  sign_qualifier: "="
  reported_result: 0.029
- molecule: "C=CC(=O)N1CCN(c2ncnc3c(Oc4c(C)c(Cl)cc5[nH]ncc45)nc(Cl)cc23)CC1 [Example 31A]"
  sign_qualifier: "="
  reported_result: 0.171
- molecule: "C=CC(=O)N1CCN(c2nc(OC[C@H]3CCN(C)C3)nc3c(Oc4c(C)ccc5[nH]ncc45)nccc23)CC1 [Example 19E]"
  sign_qualifier: "="
  reported_result: 29.8
- molecule: "C=CC(=O)N1CCN(c2nc(OCC(C)(C)O)nc3c(Oc4c(Cl)c(F)cc5[nH]ncc45)nc(Cl)cc23)CC1 [Example 13G]"
  sign_qualifier: "="
  reported_result: 0.16
- molecule: "C=CC(=O)N1CCN(c2nc(OC3CCN(C)CC3)nc3c(Oc4c(Cl)c(F)cc5[nH]ncc45)nccc23)CC1 [Example 16I]"
  sign_qualifier: "="
  reported_result: 0.582
- molecule: "C=CC(=O)N1CCN(c2ncnc3c(Oc4c(Cl)c(F)cc5[nH]ncc45)cccc23)CC1 [Example 18C]"
  sign_qualifier: "="
  reported_result: 1.1
- molecule: "C=CC(=O)N1CCN(c2ncnc3c(Oc4c(Cl)ccc5[nH]ncc45)cccc23)C[C@@H]1C [Example 07C]"
  sign_qualifier: "="
  reported_result: 5.67
- molecule: "C=CC(=O)N1CCN(c2nc(O[C@@H]3CN(C)C[C@H]3OCC(F)F)nc3c(Oc4c(Cl)c(F)cc5[nH]ncc45)nccc23)CC1 (racemic) [Example 32I]"
  sign_qualifier: "="
  reported_result: 0.168
- molecule: "C=CC(=O)N1CCN(c2nc(OCc3ccccn3)nc3c(Oc4c(Cl)c(F)cc5[nH]ncc45)nccc23)CC1 [Example 08H]"
  sign_qualifier: "="
  reported_result: 0.491
